Tested on: Entamoeba histolytica
Test: Inhibitory concentration against Entamoeba histolytica (HK-9) for antiprotozoal activity
Type: functional, organism-based
pIC50: −log10 of the molar value.
value_kind: pIC50

                                chem_smiles  value_kind   val
0    CCC/N=C(\S)N/N=C/c1ccc([N+](=O)[O-])s1       pIC50  4.81
1  O=[N+]([O-])c1ccc(/C=N/N=C(\S)NC2CCCC2)s1       pIC50  5.54

[A] CC(C)/N=C(\S)N/N=C/c1ccc([N+](=O)[O-])s1
[B] O=[N+]([O-])c1ccc(/C=N/N=C(\S)NC2CCCCC2)s1
Would you kindly point out which of A and B has the smaller pIC50 figure? // respond with label for picked entry A

[I] CC(C)C/N=C(\S)N/N=C/c1ccc([N+](=O)[O-])s1
[II] Cc1ncc([N+](=O)[O-])n1CCO
// task: argmin of pIC50 over [ I , II ] Selection: enter the item's label. I

[a] CC(C)CN(CC(C)C)/C(S)=N/N=C/c1ccc([N+](=O)[O-])s1
[b] CCCN(CCC)/C(S)=N/N=C/c1ccc([N+](=O)[O-])s1
[c] O=[N+]([O-])c1ccc(/C=N/N=C(\S)N2CCCCCC2)s1
Reorder the items by pIC50, least to greatest. Output spec: labels arranged per the requested ranking. a, b, c

###

Tested on: Entamoeba histolytica
Assay: Inhibitory concentration against Entamoeba histolytica (HK-9) for antiprotozoal activity
Assay type: functional, organism-based
value_kind: IC50 (µM)

In [3]: df
Out[3]:
                                chem_smiles   val
0  CCN(CC)/C(S)=N/N=C/c1ccc([N+](=O)[O-])s1  10.1

[a] CCCC/N=C(\S)N/N=C/c1ccc([N+](=O)[O-])s1
[b] CN(/C(S)=N/N=C/c1ccc([N+](=O)[O-])s1)C1CCCCC1
Dear colleague, could you let me know whether a or b has the lower recorded IC50? Thanks. Selection: enter the item's label. b
